Tested on: FHC
test.method.notes: MTT cytotoxicity assay, normal FHC cells
settings: Homo sapiens, 48 h, read-out: IC50 FHC
The following compounds are listed with their measured IC50 values.
API: value field is a number in µM; no unit string.

Worked cases, IC50 given:
COc1cc2nccc(Oc3ccc(NC(=O)c4nnc(-c5ccccc5)s4)cc3)c2cc1OC [Compound 51c]    71.3
O=C(Nc1ccc(Oc2ccnc(Cl)c2)c(F)c1)c1nc(-c2ccc(Br)cc2)cs1 [Compound 51af]    21.6
O=C(Nc1ccc(Oc2ccnc(Cl)c2Cl)c(F)c1)c1nc(-c2ccc(F)c(F)c2)cs1 [Compound 51an]    9.54
Cc1ccc(-c2csc(C(=O)Nc3ccc(Oc4ccnc(Cl)c4)c(F)c3)n2)cc1 [Compound 51x]    43.4
O=C(Nc1ccc(Oc2ncnc3ccsc23)c(F)c1)c1nc(-c2ccc(F)cc2)cs1 [Compound 51t]    67.4

(Q) I would be grateful if you could share the reported IC50 for COc1cc2nccc(Oc3ccc(NC(=O)c4nc(-c5ccccc5)cs4)cc3)c2cc1OC [Compound 51e] .
(A) 64.5

(Q) Now try COc1cc2nccc(Oc3ccc(NC(=O)c4nnc(-c5ccc(F)cc5)s4)cc3)c2cc1OC [Compound 51d] .
(A) 68.6

(Q) Also check O=C(Nc1ccc(Oc2ccnc(Cl)c2)c(F)c1)c1nc(-c2cccc(F)c2)cs1 [Compound 51ab]
(A) 20.2

(Q) Same for O=C(Nc1ccc(Oc2ccnc3ccsc23)c(F)c1)c1nc(-c2ccccc2)cs1 [Compound 51q]
(A) 80.6

(Q) Same thing, different compound: O=C(Nc1ccc(Oc2ccnc(Cl)c2Cl)c(F)c1)c1nc(-c2ccc(F)c(Cl)c2)cs1 [Compound 51am]
(A) 8.63

(Q) Then what about the compound COc1cc2c(Oc3ccc(NC(=O)C4(C(=O)Nc5ccc(F)cc5)CC4)cc3F)ccnc2cc1OCCCN1CCOCC1 [Foretinib, reference compound] ?
(A) 4.06

(Q) Please do the same for O=C(Nc1ccc(Oc2ccnc(Cl)c2)c(F)c1)c1nc(-c2ccccc2)cs1 [Compound 51w] as well.
(A) 48.2

(Q) Do the same for COc1cc2nccc(Oc3ccc(NC(=O)c4nc(-c5ccccc5)cs4)cc3Cl)c2cc1OC [Compound 51l] please
(A) 51.6
